target: T1, hRpn13 (1–150), which includes the Pru domain (human, UniProt Q16186 1-150); test: ITC; 25 °C; 200 μM hRpn2 peptide injected into 20 μM or 18 μM hRpn13 Pru in the cell; 20 mM sodium phosphate, 50 mM NaCl, 10 mM βME, pH 7.0; one-site fit; details: both partners purified
T1 construct: hRpn13/Adrm1, human, residues M1-L150 (Pru domain; N-terminal 19 and C-terminal 20 residues randomly coiled); Isotope-labelled (15N, 13C) in some NMR samples; also called hRpn13 Pru; hRpn13 Pru (1–150); not shown: His tag, N-terminal, cleaved
T1 sequence (Q16186 1-150): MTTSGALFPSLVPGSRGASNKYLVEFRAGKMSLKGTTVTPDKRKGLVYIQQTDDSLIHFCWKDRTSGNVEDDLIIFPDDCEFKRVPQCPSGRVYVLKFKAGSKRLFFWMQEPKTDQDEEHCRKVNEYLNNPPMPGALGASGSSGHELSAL
MEASURED PARAMETER: pKd
# reply with the number alone; pKd is -log10 of concentration in mol/L

Look up pKd for this binder: PPEPFEYIDD (source: synthetic peptide (Fmoc chemistry on Wang resin, HPLC purified)) [hRpn2 (944–953)]
5.71

Look up pKd for this binder: QEPEPPEPFEYIDD (The author contributions say that peptides were synthesized for the DSF experiment, so the DSF sample may be a synthetic peptide of the same limits; also called hRpn2 peptide; hRpn2 fragment; source: E. coli BL21(DE3) pLysS, purified (Glutathione S-sepharose 4B, PreScission cleavage, Superdex75); not shown: GST, N-terminal, cleaved) [hRpn2 (940–953)]
7.57
